// protein stability index lookup, one value per entry
B1: PTPN9 (parent)
chain: LKGAFPARLKKVLIVGAPIWFRVP

Variants of: B1
Assay: protein stability index of a GFP-peptide fusion (GPS, HEK-293T) (PSI 1-6); higher = more stable;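 further: lentivirally expressed fusions sorted by FACS into six bins by GFP to DsRed ratio, PSI derived from sequencing read proportions per bin multiplied by bin number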
Details: c terminus: a fixed tail appended
endpoint-label: protein stability index

input-sequence: LKGAFPARLKKVLITGAPIWFRVP
measured-result: 2.46

input-sequence: LKGAFPARLKKVLIVGAPHWFRVP
measured-result: 1

input-sequence: LKGAFPARLKKVLIVIAPIWFRVP
measured-result: 1.57

input-sequence: LRGAFPARLKKVLIVGAPIWFRVP
measured-result: 3.96

input-sequence: LKGAFPARLKKVNIVGAPIWFRVP
measured-result: 1.7

input-sequence: LKGAFPVRLKKVLIVGAPIWFRVP
measured-result: 2.57

input-sequence: LKGAFPARLKKVLIVGNPIWFRVP
measured-result: 2.61

input-sequence: LKGAFPARLKKVLIVGAPIWFRVE
measured-result: 1.31

input-sequence: LKGAFPARLKKVLIHGAPIWFRVP
measured-result: 2.46

input-sequence: LKGAFPARLKKVIIVGAPIWFRVP
measured-result: 3.11

input-sequence: LKGAFPARLKKVLIVGAPIWFDVP
measured-result: 1.87

input-sequence: LKGAFPARLKKVLIVPAPIWFRVP
measured-result: 5.02

input-sequence: LKGAFPARLKKVLAVGAPIWFRVP
measured-result: 4.13

input-sequence: VKGAFPARLKKVLIVGAPIWFRVP
measured-result: 3.26

input-sequence: LKGAFPARLKKVLIVGAPIWLRVP
measured-result: 1.57

input-sequence: LKGAFPARLKKVLEVGAPIWFRVP
measured-result: 1.09

input-sequence: LKGAFPARLKKVLIQGAPIWFRVP
measured-result: 1.55

input-sequence: LKGAFPARLKKVLIVGAPIWFRPP
measured-result: 2.07

input-sequence: LKAAFPARLKKVLIVGAPIWFRVP
measured-result: 2.89

input-sequence: LKGAFPARLKKVLIVGAPIKFRVP
measured-result: 2.56

input-sequence: LKGAFPARLKKVLIVGAPSWFRVP
measured-result: 1.95

input-sequence: LKGAFPARLQKVLIVGAPIWFRVP
measured-result: 2.94
